Listing of entries alongside the reported IC50.
Tested on: SMN2 mRNA
assay.comment: RT-qPCR splicing assay panel, SMN2 canonical junction (CJ) mRNA
Type: cell-based, human
applied.conditions: Homo sapiens, canonical junction (CJ) mRNA, RT-qPCR panel, Table 4A; read-out: SMN2, decrease in CJ mRNA levels, IC50

compound	IC50
COc1cc(-c2cc(O)c(-c3ccc(N4CC[C@@H](NC5(C)CCC5)C4)nn3)cc2F)cnn1	< 100 nM
CC1(NC2CCN(c3ccc(-c4cc(F)c(-c5cn[nH]c5)cc4O)nn3)C2)CC1 (stereo not shown)	< 100 nM

**Query** Any idea what its IC50 is? The compound is Cc1nc(C#N)c(-c2cc(O)c(-c3ccc(N4CC[C@@H](NC5CCC5)C4)nn3)cc2F)s1
**Result** < 100 nM

**Query** Another compound to look at: Cc1nc2c(F)cc(-c3ccc(-c4ccc(N5CCC(NC6CCC6)C5)nn4)c(O)c3)cc2o1 (stereo not shown)
**Result** < 100 nM

**Query** Another compound to look at: COc1cc(-c2cc(O)c(-c3ccc(N4CCC(N[C@H]5C[C@@H](F)C5)C4)nn3)cc2F)cnn1 (stereo partly shown)
**Result** < 100 nM

**Query** Another compound to look at: COc1cc(-c2cc(O)c(-c3ccc(N4CC[C@@H](N[C@H]5C[C@H](F)C5)C4)nn3)cc2F)cnn1
**Result** < 100 nM

**Query** Another compound to look at: COc1cc(-c2ccc(-c3ccc(N4CC[C@@H](NC5CC5)C4)nn3)c(O)c2)cnn1
**Result** < 100 nM
